Cited source: the supplement of paper PMC4022240

ASSAY SYSTEM: anti-H3K4me3 antibody ab8580
ASSAY NAME: peptide microarray binding signal (635 nm), min-max normalized on array (fraction of array maximum); higher = stronger binding
RUN CONDITIONS: peptide region: Unmod H1 variant; binder concentration: 1:2,000 dilution
Kindly supply the reported peptide microarray binding signal values for the records listed here.

The recorded peptide microarray binding signal for PAGPSVSELIVQA [Unmod H1 variant P A G P S V S E L I V Q A] is 0.00111

The recorded peptide microarray binding signal for TKPGASKVATKTK [Unmod H1 variant T K P G A S K V A T K T K] is 0.00117

The recorded peptide microarray binding signal for AKKPAGAAKKPKK [Unmod H1 variant A K K P A G A A K K P K K] is 0.000604

The recorded peptide microarray binding signal for KAASGEAKPKAKK [Unmod H1 variant K A A S G E A K P K A K K] is 0.000831

The recorded peptide microarray binding signal for KSSKNPKKPKTVK [Unmod H1 variant K S S K N P K K P K T V K] is 0.000774

The recorded peptide microarray binding signal for SKKSVKTPKKAKK [Unmod H1 variant S K K S V K T P K K A K K] is 0.000359

The recorded peptide microarray binding signal for GVSLAALKKALAA [Unmod H1 variant G V S L A A L K K A L A A] is 0.00157

The recorded peptide microarray binding signal for GTGASGSFKLNKK [Unmod H1 variant G T G A S G S F K L N K K] is 0.000547

The recorded peptide microarray binding signal for YDVEKNNSRIKLG [Unmod H1 variant Y D V E K N N S R I K L G] is 0.000944

The recorded peptide microarray binding signal for LNKKASSVETKPG [Unmod H1 variant L N K K A S S V E T K P G] is 0.00126

The recorded peptide microarray binding signal for AEKNRAGSSRQSI [Unmod H1 variant A E K N R A G S S R Q S I] is 0.000453

The recorded peptide microarray binding signal for IKLGIKSLVSKGT [Unmod H1 variant I K L G I K S L V S K G T] is 0.00147

The recorded peptide microarray binding signal for PKKAKKPAAAAGA [Unmod H1 variant P K K A K K P A A A A G A] is 0.000736

The recorded peptide microarray binding signal for KAAAASKKKPAGP [Unmod H1 variant K A A A A S K K K P A G P] is 0.000321

The recorded peptide microarray binding signal for ASAAPEKPLAGKK [Unmod H1 variant A S A A P E K P L A G K K] is 0.00151

The recorded peptide microarray binding signal for AVAASKERSGVSL [Unmod H1 variant A V A A S K E R S G V S L] is 0.00236

The recorded peptide microarray binding signal for TKKEIKKVATPKK [Unmod H1 variant T K K E I K K V A T P K K] is 0.000604

The recorded peptide microarray binding signal for KAKKPAATRKSSK [Unmod H1 variant K A K K P A A T R K S S K] is 0.000755

The recorded peptide microarray binding signal for KSPAKAKAVKPKA [Unmod H1 variant K S P A K A K A V K P K A] is 0.000283

The recorded peptide microarray binding signal for KTAKPKKAAPKKK [Unmod H1 variant K T A K P K K A A P K K K] is 0.000755

The recorded peptide microarray binding signal for LKKALAAAGYDVE [Unmod H1 variant L K K A L A A A G Y D V E] is 0.000982

The recorded peptide microarray binding signal for PKKAPVKPKAKSS [Unmod H1 variant P K K A P V K P K A K S S] is 0.00034

The recorded peptide microarray binding signal for TPKKASKPKKAAS [Unmod H1 variant T P K K A S K P K K A A S] is 0.000698

The recorded peptide microarray binding signal for IVQAASSSKERGG [Unmod H1 variant I V Q A A S S S K E R G G] is 0.00279

The recorded peptide microarray binding signal for ASGSFKLNKKAAS [Unmod H1 variant A S G S F K L N K K A A S] is 0.00132

The recorded peptide microarray binding signal for VKKKARKSAGAAK [Unmod H1 variant V K K K A R K S A G A A K] is 0.00145

The recorded peptide microarray binding signal for AKAVKPKAAKPKT [Unmod H1 variant A K A V K P K A A K P K T] is 0.000774

The recorded peptide microarray binding signal for DSQIKLSIKRLVT [Unmod H1 variant D S Q I K L S I K R L V T] is 0.000623

The recorded peptide microarray binding signal for RLVTTGVLKQTKG [Unmod H1 variant R L V T T G V L K Q T K G] is 0.00321

The recorded peptide microarray binding signal for KTVKPKKVAKSPA [Unmod H1 variant K T V K P K K V A K S P A] is 0.000529

The recorded peptide microarray binding signal for TKTKATGASKKLK [Unmod H1 variant T K T K A T G A S K K L K] is 0.000642
